target: Homeobox protein Hox-A13 (Mus musculus); assay: inhibitors of HoxA13-DNA binding, primary screen, biochemical, fluorescence polarization, labeled oligonucleotide (AID 1185); settings: 15 min, higher = more signal, called active from +8 up or from −8 down
Calls of active or inactive are those of the source.
parameter: z-score

chem.smiles	parameter	data.value
O=C1O[C@@H](c2ccccc2)[C@@H](c2ccccc2)N2[C@@H](c3ccc(O)cc3)[C@]3(C(=O)Nc4ccc(C#CC5=CCCCC5)cc43)[C@@H](C(=O)NC[C@H](O)c3ccccc3)[C@H]12	z-score	0.986 (inactive)
O=C(NCCCCCNC(=O)/C(Cc1ccccc1)=N/O)OCc1ccccc1	z-score	-4.08 (inactive)
COc1ccc(CCNC(=O)[C@@]2(Sc3ccc(C)cc3)CC(=O)N(C3Cc4ccccc4C3)[C@@H]2c2ccc(CO)cc2)cc1	z-score	0.563 (inactive)
NC(=O)NCC#Cc1ccc2c(c1)[C@]1(C(=O)N2)[C@H](C(=O)O)[C@H]2C(=O)O[C@H](c3ccccc3)[C@H](c3ccccc3)N2[C@@H]1c1ccc(OCCO)cc1	z-score	-6.34 (inactive)

* * *

Each entry below carries its reported z-score.
experiment: inhibitors of hydroxyurea-induced Chk1 phosphorylation, primary screen, imaging, HeLa, phospho-Chk1 antibody, percent positive cells (AID 1186); settings: hydroxyurea-induced phospho-Chk1 immunofluorescence imaging, higher = more signal
Calls of active or inactive are those of the source. How the calls were made is not given here.
parameter: z-score

molecule	parameter	data.value
COC(=O)[C@@]1(Cc2ccc(OC)cc2)[C@@H]2C(=CC(=O)[C@H]2CC(=O)C(=O)N(C)C)CN1C(=O)c1ccccc1	z-score	-0.246 (inactive)
COc1ccc([Si](C)(C)[C@@H]2[C@@H](CC(=O)N3Cc4ccccc4C[C@H]3CO)O[C@]3(C(=O)N(C)c4ccccc43)[C@H]2C)cc1	z-score	-1.6 (inactive)
C=CCC(OC(C)=O)[C@@H]1[C@@H](N(Cc2cccc3ccccc23)C(=O)c2cccc3ccccc23)c2cc(OCCCO)ccc2N1C(=O)c1ccc(-c2ccccc2)cc1 (stereo partly specified)	z-score	0.305 (inactive)
N#Cc1ccc(NN2C(C(O)c3ccc(F)cc3)C=CC3C(=O)N(c4ccccc4)C(=O)C32)cc1 (stereo unspecified)	z-score	-0.0909 (inactive)
CN(C)CCCCNC(=O)[C@@H]1C[C@@H]2C(=O)N[C@@H](Cc3ccccc3)C(=O)N2[C@@H]1c1cccc(OCCO)c1	z-score	-1.08 (inactive)
COc1ccc([Si](C)(C)[C@H]2[C@H](CCn3cc([C@H](O)c4ccccc4)nn3)O[C@@]3(C(=O)N(Cc4ccc(N5C(=O)c6cccc7cccc5c67)cc4)c4ccccc43)[C@@H]2C)cc1	z-score	-0.283 (inactive)

* * *

Below is a list of entries, each paired with its recorded z-score value.
molecular target: Homeobox protein Hox-A13 (Mus musculus) (UniProt Q62424); experiment: inhibitors of HoxA13-DNA binding, primary screen, biochemical, fluorescence polarization, labeled oligonucleotide (AID 1185); settings: 15 min, higher = more signal, called active from +8 up or from −8 down
Sequence (Q62424 whole entry, looked up): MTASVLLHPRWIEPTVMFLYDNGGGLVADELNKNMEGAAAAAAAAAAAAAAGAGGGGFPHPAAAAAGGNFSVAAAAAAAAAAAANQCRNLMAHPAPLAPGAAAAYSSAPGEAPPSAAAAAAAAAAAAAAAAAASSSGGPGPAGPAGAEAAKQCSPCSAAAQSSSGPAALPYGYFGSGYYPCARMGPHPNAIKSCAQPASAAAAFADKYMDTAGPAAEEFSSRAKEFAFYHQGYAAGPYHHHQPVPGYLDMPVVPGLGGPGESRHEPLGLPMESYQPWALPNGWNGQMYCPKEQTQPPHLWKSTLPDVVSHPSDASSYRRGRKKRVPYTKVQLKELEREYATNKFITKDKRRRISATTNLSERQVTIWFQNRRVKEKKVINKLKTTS

molecule	z-score
CCOC(=O)C[C@H]1[C@H](OC(=O)c2cc3ccccc3oc2=O)[C@@H](NC(=O)c2ccc(-c3ccccc3)cc2)c2cc(OCCCO)ccc2N1C(=O)c1ccccc1	0.455
COc1ccc(C(O)C2C=CC3C(=O)N(c4ccccc4)C(=O)C3N2Nc2ccc([N+](=O)[O-])cc2)cc1 (configuration not stated)	-3.98
CCCCCCCCCCC(O)C1C=CC2C(=O)N(C)C(=O)C2N1Nc1ccc([N+](=O)[O-])cc1[N+](=O)[O-] (configuration not stated)	-3.99
COc1ccc([Si](C)(C)[C@@H]2[C@@H](CC(=O)N(CCO)Cc3ccccc3)O[C@]3(C(=O)N(c4ccccc4)c4ccccc43)[C@H]2C)cc1	-5.59
COCCOC(=O)N1C(=O)[C@@]2(c3cc(C#CC4=CCCCC4)ccc31)[C@H](C(=O)N1CCCCCCC1)[C@H]1C(=O)O[C@H](c3ccccc3)[C@H](c3ccccc3)N1[C@@H]2c1ccc(O)cc1	2.25
COC(=O)[C@@]1(Cc2ccccc2)[C@H]2c3cc(C(=O)N(C)C)n(CCc4ccc(O)c(OC)c4)c3C[C@H]2CN1C(=O)c1ccccc1	-0.394
O=C1N(Cc2ccccc2)Cc2ccccc2[C@@H]2OC(c3ccc(OCCCO)cc3)=N[C@]12CCS(=O)(=O)c1ccccc1	0.722
